System: HL-60(TB) leukemia
procedure_summary: NCI tumour cell line growth inhibition, 48 h
Please note: Y applies when TGI is 10 µM or greater, and N applies otherwise.

Answered cases to consult:
# molecule, assigned_label
data = [
    ("C#CC[N+](C)(CC#C)CC#C", "Y"),
    ("COC(=O)C1=C(OC(=O)/C=C/c2ccccc2)C(C(=O)OC)[C@@]2(O)[C@@H](C(=O)OC)[C@H](C)C[C@@H]1[C@@H]2C(=O)OC (stereo not given in full)", "Y"),
    ("CN(Cc1cccc(F)c1)c1ccc(CO)c(Cl)c1", "Y"),
]

Q. Is reported TGI greater than or equal to 10 µM here: CN(COC(=O)c1ccccc1)c1nc(N(C)COC(=O)c2ccccc2)nc(N(C)COC(=O)c2ccccc2)n1
A. Y

Provenance of the data: PubChem BioAssay (NCI)
